B1: Hairpin Ribozyme (parent)
chain: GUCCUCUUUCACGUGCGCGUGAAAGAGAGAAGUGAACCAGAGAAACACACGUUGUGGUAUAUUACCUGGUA

variants of: B1; assay: self-cleavage, relative activity (ratio to wild type); higher = more cleavage; co-transcriptional
Threshold check on self-cleavage: at or above 0.2 gives Y, strictly below gives N.

G34U C38G: Y
U5C U20A: Y
A24C G68U: Y
G32C C37G: N
A28U A61G: N
U53C U60C: Y

### Prompt Has C16U U33C a recorded self-cleavage greater than or equal to 0.2?
### Response Y

### Prompt Has G68C G69A a recorded self-cleavage greater than or equal to 0.2?
### Response N

### Prompt Has U55A G57U a recorded self-cleavage greater than or equal to 0.2?
### Response N

### Prompt Has U33G A43G a recorded self-cleavage greater than or equal to 0.2?
### Response Y

meta.source: the RNAGym collection of RNA variant scans (doi:10.7554/elife.80360)
